Value source: ChEMBL document CHEMBL5724801

system: U2OS; assay: Multiplex assay against U2OS; assay type: toxicity, cell-based; conditions: human, 48 h, 1 µM, compound concentration 1 uM
REPORTED_PROPERTY: Population Hoechst High Intensity Objects (%)

>  <COMPOUND>
c1ccc2nc(N3CCNCC3)ccc2c1

>  <ASSAY_SYSTEM>
U2OS

>  <OBSERVED_RESULT>
0

$$$$
>  <COMPOUND>
COc1cc2ncnc(Nc3ccc(Oc4ccccc4)cc3C)c2cc1OC.Cl

>  <ASSAY_SYSTEM>
U2OS

>  <OBSERVED_RESULT>
0

$$$$
>  <COMPOUND>
COc1ccc2nc3ccc(OC)cc3c(SCCCN)c2c1.Cl

>  <ASSAY_SYSTEM>
U2OS

>  <OBSERVED_RESULT>
0

$$$$
>  <COMPOUND>
C[C@@H]1CC(=O)Nc2cccc(-c3ccc4c(c3)c(-c3cnn(C)c3)nn4C)c2N1

>  <ASSAY_SYSTEM>
U2OS

>  <OBSERVED_RESULT>
1

$$$$
>  <COMPOUND>
COCCn1c(C)c(C)s/c1=N\C(=O)C1C(C)(C)C1(C)C

>  <ASSAY_SYSTEM>
U2OS

>  <OBSERVED_RESULT>
1

$$$$
>  <COMPOUND>
Cl.NCCc1ccc(O)c(O)c1 [DOPAMINE HYDROCHLORIDE]

>  <ASSAY_SYSTEM>
U2OS

>  <OBSERVED_RESULT>
2

$$$$
>  <COMPOUND>
O=C1NCc2ccc3c(-c4cccc(Cl)c4)c[nH]c3c21

>  <ASSAY_SYSTEM>
U2OS

>  <OBSERVED_RESULT>
0

$$$$
>  <COMPOUND>
CC[C@H](Nc1ncnc2[nH]cnc12)c1nc2cccc(F)c2c(=O)n1-c1ccccc1

>  <ASSAY_SYSTEM>
U2OS

>  <OBSERVED_RESULT>
0

$$$$
>  <COMPOUND>
CN(C)CCCc1cc(C(=O)Nc2ccc(-c3ccncc3)cc2)ccc1O.Cl.Cl

>  <ASSAY_SYSTEM>
U2OS

>  <OBSERVED_RESULT>
3

$$$$
>  <COMPOUND>
CCc1nn2c(C)cc(C)nc2c1Cc1ccc(-c2nnc(C3CCNCC3)o2)cc1

>  <ASSAY_SYSTEM>
U2OS

>  <OBSERVED_RESULT>
2

$$$$

----------
test system: Fibroblast; test: Multiplex assay against human fibroblast; format: toxicity, cell-based; details: 12 h, 1 µM, compound concentration 1 uM
REPORTED_PROPERTY: Population Normal (%)

>  <COMPOUND>
O=C1N=C(NCc2cccs2)S/C1=C\c1ccc2ncccc2c1

>  <ASSAY_SYSTEM>
Fibroblast

>  <OBSERVED_RESULT>
100

$$$$
>  <COMPOUND>
O=C(Nc1ccccc1Cl)c1cnc2ccc(C3CCNCC3)cn12.O=C(O)C(=O)O

>  <ASSAY_SYSTEM>
Fibroblast

>  <OBSERVED_RESULT>
100

$$$$
>  <COMPOUND>
S=c1[nH]nc(-c2cccs2)n1-c1ccccc1

>  <ASSAY_SYSTEM>
Fibroblast

>  <OBSERVED_RESULT>
100

$$$$
>  <COMPOUND>
Cl.NCCc1ccc(O)c(O)c1 [DOPAMINE HYDROCHLORIDE]

>  <ASSAY_SYSTEM>
Fibroblast

>  <OBSERVED_RESULT>
98

$$$$
>  <COMPOUND>
O=C1NCc2ccc3c(-c4cccc(Cl)c4)c[nH]c3c21

>  <ASSAY_SYSTEM>
Fibroblast

>  <OBSERVED_RESULT>
100

$$$$
>  <COMPOUND>
CCN1CCN(Cc2ccc(Nc3ncc(F)c(-c4cc(F)c5nc(C)n(C(C)C)c5c4)n3)nc2)CC1.CS(=O)(=O)O

>  <ASSAY_SYSTEM>
Fibroblast

>  <OBSERVED_RESULT>
100

$$$$
>  <COMPOUND>
CN1CCN2c3ncccc3Cc3ccccc3C2C1 (centres undefined)

>  <ASSAY_SYSTEM>
Fibroblast

>  <OBSERVED_RESULT>
96

$$$$
>  <COMPOUND>
COC[C@@H](c1ccc(C(F)(F)F)cc1)N1CCN(C2(C)CCN(C(=O)c3c(C)ncnc3C)CC2)C[C@@H]1C.O=C(O)/C=C\C(=O)O [VICRIVIROC MALEATE]

>  <ASSAY_SYSTEM>
Fibroblast

>  <OBSERVED_RESULT>
95

$$$$
>  <COMPOUND>
C=C(C)[C@H]1CN[C@H](C(=O)O)[C@H]1CC(=O)O

>  <ASSAY_SYSTEM>
Fibroblast

>  <OBSERVED_RESULT>
100

$$$$
>  <COMPOUND>
CC(C)Oc1ccc(F)c(-c2cnc(N)c(C(=O)Nc3cnccc3N3CCC[C@@H](C(=O)O)C3)n2)c1

>  <ASSAY_SYSTEM>
Fibroblast

>  <OBSERVED_RESULT>
100

$$$$
>  <COMPOUND>
CC(C)c1ccc(/C=N/NC(=O)c2ccc(O)cc2)cc1

>  <ASSAY_SYSTEM>
Fibroblast

>  <OBSERVED_RESULT>
100

$$$$
>  <COMPOUND>
CNC[C@H](O)c1ccc(O)c(O)c1 [EPINEPHRINE]

>  <ASSAY_SYSTEM>
Fibroblast

>  <OBSERVED_RESULT>
98

$$$$
>  <COMPOUND>
CC/C(=C(\c1ccc(O)cc1)c1ccc(OCCN(C)C)cc1)c1ccccc1

>  <ASSAY_SYSTEM>
Fibroblast

>  <OBSERVED_RESULT>
100

$$$$
>  <COMPOUND>
COc1cc2ncnc(Nc3ccc(Oc4ccccc4)cc3C)c2cc1OC.Cl

>  <ASSAY_SYSTEM>
Fibroblast

>  <OBSERVED_RESULT>
100

$$$$
